Assay System: feline FcRn complex (FcRn-α subunit and β-microglobulin), biotin labeled (feline)
Assay Overview: SPR, pH 6
Measurement Name: pKd
Just the number, please; pKd means minus log10 of the concentration in mol/L.

Which pKd value is on record for feline IgG1a Y285A (antibody, part only; not given: Variable domains, not shown: another chain or arm of the molecule) constant: ASTTAPSVFPLAPSCGTTSGATVALACLVLGYFPEPVTVSWNSGALTSGVHTFPAVLQASGLYSLSSMVTVPSSRWLSDTFTCNVAHPPSNTKVDKTVRKTDHPPGPKPCDCPKCPPPEMLGGPSIFIFPPKPKDTLSISRTPEVTCLVVDLGPDDSDVQITWFVDNTQVATAKTSPREEQFNSTYRVVSVLPILHQDWLKGKEFKCKVNSKSLPSPIERTISKAKGQPHEPQVYVLPPAQEELSRNKVSVTCLIKSFHPPDIAVEWEITGQPEPENNYRTTPPQLDSDGTYFVYSKLSVDRSHWQRGNTYTCSVSHEALHSHHTQKSLTQSPGK ?
8.10
